molecular target: Human Platelet IP Receptor (Homo sapiens, UniProt P43119); construct: 250 ml Platelet Rich Plasma was transferred into 250 ml centrifuge tubes and spun at 6000 g; from tissue; host or cells: membranes prepared from platelets (platelet rich plasma); assay: In vitro Human Platelet IP Receptor Radioligand Binding Assay
Sequence (P43119 whole entry): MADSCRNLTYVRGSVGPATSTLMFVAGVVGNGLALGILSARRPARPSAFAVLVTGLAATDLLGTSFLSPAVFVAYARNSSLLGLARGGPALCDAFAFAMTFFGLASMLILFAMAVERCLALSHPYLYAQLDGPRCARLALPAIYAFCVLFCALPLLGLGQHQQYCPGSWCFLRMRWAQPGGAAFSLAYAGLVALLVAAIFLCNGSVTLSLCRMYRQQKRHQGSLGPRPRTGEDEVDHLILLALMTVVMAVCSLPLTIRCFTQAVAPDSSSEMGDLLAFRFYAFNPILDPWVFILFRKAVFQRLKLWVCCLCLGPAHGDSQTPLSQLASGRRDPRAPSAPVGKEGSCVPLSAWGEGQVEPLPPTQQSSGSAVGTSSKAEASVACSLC
property name: Ki (nM)
Lab book: enter the figure in nM, no units written.

Any idea what its Ki is? The compound is O=C(CCc1ccc(NC2=NCCN2)cc1)c1ccc(N2CCOCC2)cc1 5.25

Query (compound): O=C(CCc1ccc(NC2=NCCN2)cc1)c1ccc(N2CCN(C(=O)c3ccco3)CC2)cc1 ; field requested: Ki 0.468

====

molecular target: Human Platelet IP Receptor (Homo sapiens, UniProt P43119); construct: 250 ml Platelet Rich Plasma was transferred into 250 ml centrifuge tubes and spun at 6000 g; from tissue; host or cells: membranes prepared from platelets (platelet rich plasma); test: In vitro Human Platelet IP Receptor Radioligand Binding Assay; conditions: human platelet membranes, radioligand competition, 25 °C for 60 min; read-out: Affinity towards the Human Platelet IP Receptor (pKi) (converted)
Give log10(Ki) for every item shown.
Remember, log10 of Ki, in nM.

What does the record list as log10(Ki) for O=C(CCc1ccc(NC2=NCCN2)cc1)c1ccc2ccccc2c1 ? 0.69

Value lookup for log10(Ki); key = O=C(CCc1ccc(NC2=NCCN2)cc1)c1cc(F)c(Cl)cc1Cl -0.15

I would be grateful if you could share the reported log10(Ki) for COc1ccc(C(=O)CCc2ccc(NC3=NCCN3)cc2)c(F)c1 . 0.00

So what's the measured log10(Ki) for this one? O=C(CCc1ccc(NC2=NCCN2)cc1)c1ccc(N2CCOCC2)cc1F [Example 4] 1.26

Fill in the blank: the reported log10(Ki) of O=C(CCc1ccc(NC2=NCCN2)cc1)c1ccc(F)c(F)c1 is ____. 1.35

For the molecule shown here, O=C(CCc1ccc(NC2=NCCN2)cc1)c1ccc(Cl)c(Cl)c1Cl , give the reported log10(Ki). 0.24

# input molecule: CN1CCN(c2ccc(C(=O)CCc3ccc(NC4=NCCN4)cc3)cc2)CC1 ; wanted: its log10(Ki) 0.85

# query: log10(Ki) of entry O=C(CCc1ccc(NC2=NCCN2)cc1)c1ccc(F)cc1F 1.75

// lookup log10(Ki) for COc1ccc2cc(C(=O)CCc3ccc(NC4=NCCN4)cc3)ccc2c1 -0.37

Please give the measured log10(Ki) for this molecule: CCOC(=O)N1CCN(c2ccc(C(=O)CCc3ccc(NC4=NCCN4)cc3)cc2)CC1 [Example 5] 0.97

====

biological target: Human Platelet IP Receptor (Homo sapiens); construct: 250 ml Platelet Rich Plasma was transferred into 250 ml centrifuge tubes and spun at 6000 g; from tissue; host or cells: membranes prepared from platelets (platelet rich plasma); test: In vitro Human Platelet IP Receptor Radioligand Binding Assay; conditions: human platelet membranes, radioligand competition, 25 °C for 60 min; read-out: Affinity towards the Human Platelet IP Receptor (pKi) (converted)
property name: Ki (nM)
# number only, unit nM dropped from output

Please give the measured Ki for this compound: O=C(CCc1ccc(NC2=NCCN2)cc1)c1ccccc1 3.16

Which value of Ki has been reported for O=C(CCc1ccc(NC2=NCCN2)cc1)c1ccccc1F in the records? 0.447

Give its Ki value. Item: COc1ccc(C(=O)COc2ccc(NC3=NCCN3)cc2)cc1 [Example 10] 2.75

So what's the measured Ki for this one? CCNC(=O)N1CCN(c2ccc(C(=O)CCc3ccc(NC4=NCCN4)cc3)cc2)CC1 38.9

I have this compound here, O=C(CCc1ccc(NC2=NCCN2)cc1)c1ccc(Cl)cc1 , and I need its recorded Ki. 0.398

So what does the record say about Ki for O=C(CCc1ccc(NC2=NCCN2)cc1)c1ccc(-c2ccccc2)cc1 ? 1.48

Data request, read-out Ki, for CCOC(=O)N1CCN(c2ccc(C(=O)CCc3ccc(NC4=NCCN4)cc3)c(F)c2)CC1 67.6

What value of Ki has been recorded for this entry: O=C(CCc1ccc(NC2=NCCN2)cc1)c1cccc(F)c1 0.676

What value of measured Ki is listed for O=C(CCc1ccc(NC2=NCCN2)cc1)c1cccc2ccccc12 ? 1.02

# Ki lookup, item O=C(COc1ccc(NC2=NCCN2)cc1)c1ccc2c(c1)OCCO2 [Example 9] 44.7

Recorded Ki for CS(=O)(=O)N1CCN(c2ccc(C(=O)CCc3ccc(NC4=NCCN4)cc3)cc2)CC1 [Example 6] , please? 28.2
